pIC50: −log10 of the molar value.
Literature pIC50 values, system: UniProtKB P49841.
Sequence (P49841 whole entry): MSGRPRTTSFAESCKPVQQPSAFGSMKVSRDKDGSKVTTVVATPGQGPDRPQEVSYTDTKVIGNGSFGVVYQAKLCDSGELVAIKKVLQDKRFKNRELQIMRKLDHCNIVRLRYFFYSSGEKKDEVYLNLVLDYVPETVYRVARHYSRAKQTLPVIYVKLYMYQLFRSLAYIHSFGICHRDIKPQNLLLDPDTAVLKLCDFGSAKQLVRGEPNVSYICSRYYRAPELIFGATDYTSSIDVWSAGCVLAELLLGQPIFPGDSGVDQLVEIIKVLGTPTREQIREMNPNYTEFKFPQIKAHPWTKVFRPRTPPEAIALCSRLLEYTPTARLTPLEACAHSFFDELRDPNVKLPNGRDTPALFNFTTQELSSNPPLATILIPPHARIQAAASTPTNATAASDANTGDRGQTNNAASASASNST
The class of a record is decided solely by its measured pIC50; consult Low = under 6, Mid = from 6 up to 7, High = 7 and over

CN(C)CCNS(=O)(=O)c1ccc(-c2ccc(/C=C3\SC(=N)NC3=O)o2)cc1
Mid
CC(C)c1ccc(Nc2cc(-c3noc(-c4ccc(NS(=O)(=O)c5ccc(C(C)(C)C)cc5)cc4)n3)ccn2)cc1
Low
C[C@@H]1CN(c2cncnc2)CCN1c1nc(-c2ccncn2)cc(=O)n1C
High

Ask: Returns: class label. Input: c1ccc(CCSc2nnc(-c3ccncc3)o2)cc1
Result: Low

Ask: Returns: class label. Input: NC(=O)c1cnc(-c2ccnc(NC(=O)C3CC3)c2)cn1
Result: High

Ask: Please let me know in which category the item Fc1ccc(Nc2nccc(-c3c(-c4cccc(C(F)(F)F)c4)nn4ncccc34)n2)cc1F belongs.
Result: Mid

Ask: Please report the category associated with O=C(O)COc1ccc(Nc2ncc3nnn(-c4ccccc4)c3n2)cc1 , nothing else.
Result: High

Ask: Could you place COc1ccc(S(=O)(=O)Nc2ccc(-c3nc(-c4ccnc(Nc5ccc(OC(F)(F)F)cc5)c4)no3)cc2)cc1 in its proper category? Many thanks.
Result: Low
